Recorded viability, T/C, one value per entry.
# System: 171881-019-R-J1-PDC complex spheroid growth, % test/control;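 further: spheroids exposed to compounds for 7 days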
# Experiment summary: Anticancer human tumor 171881-019-R-J1-PDC patient-derived invasive breast carcinoma cell line growth inhibition [Asc]
# Measurement parameters: second compound 1 µM; first compound 0.00316 µM; hits give low values
# output: bare number, implied unit %

Example molecules with recorded viability, T/C:
Molecule: O=C(c1ccc(F)c(F)c1Nc1ccc(I)cc1F)N1CC(O)([C@@H]2CCCCN2)C1 + CNC(C)C(=O)NC1CN(S(=O)(=O)c2cccc(S(=O)(=O)N3CCC4CCC(C(=O)NC(c5ccccc5)c5ccccc5)N4C(=O)C(NC(=O)C(C)NC)C3)c2)CCC2CCC(C(=O)NC(c3ccccc3)c3ccccc3)N2C1=O
Unit of measurement: %
viability, T/C: 92.5
//
Molecule: CCN1CCN(Cc2ccc(Nc3ncc(F)c(-c4cc(F)c5nc(C)n(C(C)C)c5c4)n3)nc2)CC1 + Cc1c(S(C)(=O)=O)c(-c2cc(F)cc(N3CCN(c4ccc(NS(=O)(=O)c5ccc(NC(CCN6CCC(C(=O)OCCCP(=O)(O)O)CC6)CSc6ccccc6)c(S(=O)(=O)C(F)(F)F)c5)cc4)CC3)c2)c(-c2ccc(Cl)cc2)n1C(C)C
Unit of measurement: %
viability, T/C: 125
//
Molecule: Cn1ncnc1[C@H]1c2n[nH]c(=O)c3cc(F)cc(c23)N[C@@H]1c1ccc(F)cc1 + CNC(C)C(=O)NC1CN(S(=O)(=O)c2cccc(S(=O)(=O)N3CCC4CCC(C(=O)NC(c5ccccc5)c5ccccc5)N4C(=O)C(NC(=O)C(C)NC)C3)c2)CCC2CCC(C(=O)NC(c3ccccc3)c3ccccc3)N2C1=O
Unit of measurement: %
viability, T/C: 93.3
//
Molecule: COc1c(OCCCN2CCOCC2)ccc2c3n(c(=NC(=O)c4cnc(N)nc4)nc12)CCN3 + CNC(C)C(=O)NC1CN(S(=O)(=O)c2cccc(S(=O)(=O)N3CCC4CCC(C(=O)NC(c5ccccc5)c5ccccc5)N4C(=O)C(NC(=O)C(C)NC)C3)c2)CCC2CCC(C(=O)NC(c3ccccc3)c3ccccc3)N2C1=O
Unit of measurement: %
viability, T/C: 210
//
Molecule: COc1c(OCCCN2CCOCC2)ccc2c3n(c(=NC(=O)c4cnc(N)nc4)nc12)CCN3 + Cc1c(S(C)(=O)=O)c(-c2cc(F)cc(N3CCN(c4ccc(NS(=O)(=O)c5ccc(NC(CCN6CCC(C(=O)OCCCP(=O)(O)O)CC6)CSc6ccccc6)c(S(=O)(=O)C(F)(F)F)c5)cc4)CC3)c2)c(-c2ccc(Cl)cc2)n1C(C)C
Unit of measurement: %
viability, T/C: 102

## Task I'd like to know its viability, T/C. The molecule in question is NC1CCC(NC2CC2c2ccccc2)CC1 (configuration not stated) + Cc1c(S(C)(=O)=O)c(-c2cc(F)cc(N3CCN(c4ccc(NS(=O)(=O)c5ccc(NC(CCN6CCC(C(=O)OCCCP(=O)(O)O)CC6)CSc6ccccc6)c(S(=O)(=O)C(F)(F)F)c5)cc4)CC3)c2)c(-c2ccc(Cl)cc2)n1C(C)C
## Result 91.5

## Task Fill blank: measured viability, T/C of the molecule CCN1CCN(Cc2ccc(Nc3ncc(F)c(-c4cc(F)c5nc(C)n(C(C)C)c5c4)n3)nc2)CC1 + CNC(C)C(=O)NC1CN(S(=O)(=O)c2cccc(S(=O)(=O)N3CCC4CCC(C(=O)NC(c5ccccc5)c5ccccc5)N4C(=O)C(NC(=O)C(C)NC)C3)c2)CCC2CCC(C(=O)NC(c3ccccc3)c3ccccc3)N2C1=O is ____.
## Result 89.7
